Data credit: patent US6251583A

# SYSTEM UNDER TEST: NS3/4A(1-631)/4A(1-54) (Hepatitis C virus genotype 1a)
# Construct: a noncovalent complex between NS4A (54 residues) and NS3 (631 residues); histidine tag (N, cleaved yes); made in house; host or cells: baculovirus system / insect cells
# Sequence (P27958 1658-1711): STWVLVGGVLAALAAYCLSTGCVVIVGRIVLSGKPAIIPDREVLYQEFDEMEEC
# Sequence (P27958 1027-1657): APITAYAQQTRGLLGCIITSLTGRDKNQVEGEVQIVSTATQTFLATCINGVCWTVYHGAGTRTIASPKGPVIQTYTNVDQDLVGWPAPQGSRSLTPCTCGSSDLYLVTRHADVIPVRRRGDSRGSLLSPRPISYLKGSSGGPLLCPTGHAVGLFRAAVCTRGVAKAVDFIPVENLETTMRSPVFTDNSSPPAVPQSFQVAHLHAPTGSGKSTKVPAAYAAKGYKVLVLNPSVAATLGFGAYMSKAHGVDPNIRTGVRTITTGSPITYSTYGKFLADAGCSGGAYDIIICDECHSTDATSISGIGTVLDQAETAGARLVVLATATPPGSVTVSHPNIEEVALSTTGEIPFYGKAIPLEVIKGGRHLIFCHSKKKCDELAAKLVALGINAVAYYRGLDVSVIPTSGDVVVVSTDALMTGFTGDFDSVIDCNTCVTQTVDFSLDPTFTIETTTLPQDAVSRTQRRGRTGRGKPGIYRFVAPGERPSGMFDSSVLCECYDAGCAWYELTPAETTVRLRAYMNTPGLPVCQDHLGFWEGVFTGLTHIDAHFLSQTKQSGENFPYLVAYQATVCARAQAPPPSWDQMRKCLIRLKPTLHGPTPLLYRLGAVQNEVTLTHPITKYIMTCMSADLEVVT
# MEASUREMENT PROTOCOL: Cleavage efficiency of nitrophenyl and other ester based chromogenic substrates, spectrophotometric
# Format: biochemical, HCV 1a(H)
# DETAILS: 25 mM MOPS pH 6.5, 10% glycerol, 0.15 M NaCl, 0.2% lauryl maltoside
Square brackets hold non-standard residues; d marks the D form. Peptide text beside a SMILES is read from it. * marks the point of attachment. X2 = c1ccc(N=Nc2ccc(O*)cc2)cc1; X3 = O=[N+]([O-])c1cccc(O*)c1; X1 = Cc1cc(=O)oc2cc(O*)ccc12; Nva = CCC[C@H](N)C(=O)O
READOUT LABEL: Km

Below: 2 molecules and their reported Km.
[
  {
    "MOLECULE": "CCC[C@H](NC(=O)[C@H](C)NC(=O)[C@@H](NC(=O)[C@@H](NC(=O)[C@H](CC(=O)O)NC(=O)[C@H](CCC(=O)O)NC(=O)[C@@H](NC(=O)[C@H](CC(=O)O)NC(C)=O)[C@@H](C)O)C(C)C)C(C)C)C(=O)Oc1ccc(N=Nc2ccccc2)cc1 [Ac-DTEDVVA(Nva)-O-PAP] (Ac-DTEDVVA[Nva]-X2)",
    "Km": "17 µM"
  },
  {
    "MOLECULE": "CCC[C@H](NC(=O)[C@@H]1CCCN1C(=O)[C@@H](NC(=O)[C@@H](NC(=O)[C@H](CC(=O)O)NC(=O)[C@H](CCC(=O)O)NC(=O)[C@@H](NC(=O)[C@H](CC(=O)O)NC(C)=O)[C@@H](C)O)C(C)C)C(C)C)C(=O)Oc1ccc2c(C)cc(=O)oc2c1 [Ac-DTEDVVP(Nva)-O-HMC] (Ac-DTEDVVP[Nva]-X1)",
    "Km": "40 µM"
  }
]

What does the record list as Km for CCC[C@H](NC(=O)[C@H](C)NC(=O)[C@@H](NC(=O)[C@@H](NC(=O)[C@H](CC(=O)O)NC(=O)[C@H](CCC(=O)O)NC(=O)[C@@H](NC(=O)[C@H](CC(=O)O)NC(C)=O)[C@@H](C)O)C(C)C)C(C)C)C(=O)Oc1cccc([N+](=O)[O-])c1 [Ac-DTEDVVA(Nva)-O-3Np] (Ac-DTEDVVA[Nva]-X3) ?
48 µM

---

# SYSTEM UNDER TEST: NS3/4A(1-631)/4A(1-54) (Hepatitis C virus genotype 1a)
# Construct: a noncovalent complex between NS4A (54 residues) and NS3 (631 residues); histidine tag (N, cleaved yes); made in house; host or cells: baculovirus system / insect cells
# MEASUREMENT PROTOCOL: Cleavage efficiency of nitrophenyl and other ester based chromogenic substrates, spectrophotometric
# Assay type: biochemical, HCV 1a(H)
# DETAILS: 25 mM MOPS pH 6.5, 10% glycerol, 0.15 M NaCl, 0.2% lauryl maltoside
Square brackets hold non-standard residues; d marks the D form. Peptide text beside a SMILES is read from it. * marks the point of attachment. ONp = O=[N+]([O-])c1ccc(O*)cc1; X2 = c1ccc(N=Nc2ccc(O*)cc2)cc1; X1 = Cc1cc(=O)oc2cc(O*)ccc12; Nva = CCC[C@H](N)C(=O)O
Below, each entry is listed alongside its reported Km.
Number only, in µM; omit the unit.

These recorded examples may help you get a feel for the data.
[
  {
    "COMPOUND": "CCC[C@H](NC(=O)[C@@H]1CCCN1C(=O)[C@@H](NC(=O)[C@@H](NC(=O)[C@H](CC(=O)O)NC(=O)[C@H](CCC(=O)O)NC(=O)[C@@H](NC(=O)[C@H](CC(=O)O)NC(C)=O)[C@@H](C)O)C(C)C)C(C)C)C(=O)Oc1ccc(N=Nc2ccccc2)cc1 [Ac-DTEDVVP(Nva)-O-PAP] (Ac-DTEDVVP[Nva]-X2)",
    "SYSTEM UNDER TEST": "NS3/4A(1-631)/4A(1-54) (Hepatitis C virus genotype 1a)",
    "READING UNIT": "µM",
    "Km": 18
  },
  {
    "COMPOUND": "CCC[C@H](NC(=O)[C@H](C)NC(=O)[C@@H](NC(=O)[C@@H](NC(=O)[C@H](CC(=O)O)NC(=O)[C@H](CCC(=O)O)NC(=O)[C@@H](NC(=O)[C@H](CC(=O)O)NC(C)=O)[C@@H](C)O)C(C)C)C(C)C)C(=O)Oc1ccc2c(C)cc(=O)oc2c1 [Ac-DTEDVVA(Nva)-O-HMC] (Ac-DTEDVVA[Nva]-X1)",
    "SYSTEM UNDER TEST": "NS3/4A(1-631)/4A(1-54) (Hepatitis C virus genotype 1a)",
    "READING UNIT": "µM",
    "Km": 20
  }
]

--- query ---
Look up Km: CCC[C@H](NC(=O)[C@H](C)NC(=O)[C@@H](NC(=O)[C@@H](NC(=O)[C@H](CC(=O)O)NC(=O)[C@H](CCC(=O)O)NC(=O)[C@@H](NC(=O)[C@H](CC(=O)O)NC(C)=O)[C@@H](C)O)C(C)C)C(C)C)C(=O)Oc1ccc([N+](=O)[O-])cc1 [Ac-DTEDVVA(Nva)-O-4Np] (Ac-DTEDVVA[Nva]-ONp)
16
